# Tested on: HIV-1 (HTLV-IIIB)
# measurement protocol: microbe, parasite or virus in culture
# Type: cell-based
# run conditions: Selectivity Index, ratio of CD₅₀ to ED₅₀, HIV-1; 7200 min
Give SI for every item shown.

C1CCNCCCNCCCNCCCNC1 = 3
C1CNCCCNCCCNCCCNC1 = 37

# next compound below
For reference, reported SI for C1CNCCNCCNCCNCCN1 stands at <1

* * *

For each entry below, report its SI value.
# System: HIV-1 (HTLV-IIIB)
# measurement protocol: microbe, parasite or virus in culture
# Type: cell-based
# run conditions: Selectivity Index, ratio of CD₅₀ to ED₅₀, HIV-1; 7200 min
Answers are plain numbers.

Below, 2 compounds whose answers are already recorded.
C1CNCCCNCCNCCCNC1 = 15
C1CCNCCCNCCNCCCNC1 [C, 1,4,8,13-tetrazacyclohexadecane. 4HCl] = 18

Lab note: next compound to report on.
For CC1CC(C)(C)NCCNC(C)CC(C)(C)NCCN1 (stereo not shown) on HIV-1 (HTLV-IIIB), measured SI was 2

* * *

# measurement protocol: Cytotoxicity by MTT method in MT-4 cells
# Assay type: cell-based, human
# run conditions: human, mt-4 cells, HIV-1, 5 days culture at 37°C, read-out: CD₅₀
Label criterion met when CC50 at 120 h is strictly below 300 µg/mL; at or above that, label criterion not met.

# count of solved cases: 4
C1CNCCCNCCNCCCNC1 = criterion not met
C1CNCCCNCCCNCCCNC1 = criterion met
C1CNCCNCCNCCNCCN1 = criterion met
CC1CC(C)(C)NCCNC(C)CC(C)(C)NCCN1 (stereo not shown) = criterion not met

Q: Criterion: CC50 at 120 h strictly below 300 µg/mL. Is it met by C1CCNCCCNCCCNCCCNC1 ?
A: criterion met

Q: Could you please tell me whether CC50 at 120 h recorded for C1CCNCCCNCCNCCCNC1 [C, 1,4,8,13-tetrazacyclohexadecane. 4HCl] is less than 300 µg/mL?
A: criterion not met

* * *

# measurement protocol: Cytotoxicity by MTT method in MT-4 cells
# Assay type: cell-based, human
# run conditions: human, mt-4 cells, HIV-2, 5 days culture at 37°C, read-out: CD₅₀
measured quantity: log10 CC50 at 120 h (log10 of the value in µg/mL)
Hey, these are logged values: log10 of CC50 at 120 h, µg/mL being the unit before logging.

CC1CC(C)(C)NCCNC(C)CC(C)(C)NCCN1 (stereo not drawn) = 2.62
C1CCNCCCNCCNCCCNC1 [C, 1,4,8,13-tetrazacyclohexadecane. 4HCl] = 2.53

Need log10 CC50 at 120 h for each of these molecules.
1. C1CNCCNCCNCCNCCN1
2. C1CCNCCCNCCCNCCCNC1
3. C1CNCCCNCCCNCCCNC1
4. C1CNCCCNCCNCCCNC1

A:
0.78
0.70
1.31
2.69
